The measured values listed here are drawn from ChEMBL document CHEMBL3046621.

# System: Phytophthora infestans
# protocol-summary: Antifungal activity against Phytophthora infestans assessed as inhibition of late tomato blight disease on tomato cultivar Rutgers plants at 25 ppm measured 24 hr post fungal inoculation relative to untreated control
# Format: functional
Each entry below carries its reported inhibition at 25 ppm.
Value expressed in %; do not type the unit.

| smiles-str | units-text | number |
| --- | --- | --- |
| C=C1[C@@H](C)C[C@@H](OC(=O)/C=C/c2ccccc2)[C@@]2(C)[C@H]1CC=C(CO)[C@@H]2CO | % | 8 |
| C=C1[C@@H](C)C[C@@H](OC)[C@]2(C)[C@@H](C=O)C(C=O)=CC[C@@H]12 | % | 67 |
| C=C1[C@@H]2[C@@H](O)C=C3[C@@H](OC)O[C@@H](OC)[C@@H]3[C@@]2(C)[C@H](OC(=O)CCc2ccccc2)C[C@@H]1C | % | 0 |
| C=C1[C@@H](C)C[C@@H](OC(=O)/C=C/c2ccccc2)[C@]2(C)[C@@H]3C(=CC[C@@H]12)[C@@H](OC)O[C@H]3OC | % | 78 |
| C=C1[C@@H]2[C@@H](O)C=C(C=O)[C@H](C=O)[C@@]2(C)[C@H](OC(=O)/C=C/c2ccccc2)C[C@@H]1C | % | 91 |
| C=C1[C@@H]2[C@@H](O)C=C3[C@@H](OC)O[C@@H](OC)[C@@H]3[C@@]2(C)[C@H](OC(=O)/C=C/c2ccccc2)C[C@@H]1C | % | 0 |

QUERY: Entry `C=C1[C@@H](C)C[C@@H](O)[C@]2(C)[C@@H](C=O)C(C=O)=CC[C@@H]12` has what inhibition at 25 ppm?
RESULT: 36

QUERY: Next compound: `C=C1[C@@H]2[C@H](O)C=C(C=O)[C@H](C=O)[C@@]2(C)[C@H](OC(=O)/C=C/c2ccccc2)C[C@@H]1C`
RESULT: 82

QUERY: And for `C=C1[C@@H](C)C[C@@H](OC(=O)/C=C/c2ccccc2)[C@]2(C)[C@@H](C=O)C(C=O)=CC[C@@H]12` ?
RESULT: 57

====

The reader will find reported inhibition at 25 ppm values listed item by item below.
# Test system: Puccinia graminis f. tritici
# protocol-summary: Antifungal activity against Puccinia graminis f. tritici assessed as inhibition of wheat stem rust disease on wheat cultivar Yuma at 25 ppm measured 24 hr post fungal inoculation relative to untreated control
# Format: functional
Write it as a number; the unit % goes unstated.

Previously resolved entries follow.
| compound | assay-target | units-text | inhibition at 25 ppm |
| --- | --- | --- | --- |
| C=C1[C@@H]2[C@@H](O)C=C3[C@@H](OC)O[C@@H](OC)[C@@H]3[C@@]2(C)[C@H](OC(=O)/C=C/c2ccccc2)C[C@@H]1C | Puccinia graminis f. tritici | % | 4 |
| C=C1[C@@H](C)C[C@@H](OC(=O)/C=C/c2ccccc2)[C@]2(C)[C@@H]3C(=CC[C@@H]12)[C@@H](OC)O[C@H]3OC | Puccinia graminis f. tritici | % | 4 |

QUERY: Request the reported inhibition at 25 ppm associated with C=C1[C@@H](C)C[C@@H](OC(=O)/C=C/c2ccccc2)[C@]2(C)[C@@H](C=O)C(C=O)=CC[C@@H]12 [Paxidal]
RESULT: 0

QUERY: Also `C=C1[C@@H](C)C[C@@H](OC)[C@]2(C)[C@@H](C=O)C(C=O)=CC[C@@H]12` , if possible.
RESULT: 0

QUERY: Check `C=C1[C@@H]2[C@@H](O)C=C3[C@@H](OC)O[C@@H](OC)[C@@H]3[C@@]2(C)[C@H](OC(=O)CCc2ccccc2)C[C@@H]1C` too.
RESULT: 9

====

# Tested on: Plasmopara viticola
# protocol-summary: Antifungal activity against Plasmopara viticola assessed as inhibition of grape downy mildew disease on vines cultivar Carignane plants at 6.25 ppm measured 24 hr post fungal inoculation relative to untreated control
# Format: functional
Measured inhibition at 6.25 ppm of individual entries
Report only the number, with the unit % understood.

For orientation, consider the following solved cases.
| smiles-str | assay-target | observed-property | number |
| --- | --- | --- | --- |
| C=C1[C@@H](C)C[C@@H](O)[C@]2(C)[C@@H](C=O)C(C=O)=CC[C@@H]12 | Plasmopara viticola | inhibition at 6.25 ppm | 7 |
| C=C1[C@@H](C)C[C@@H](OC(=O)/C=C/c2ccccc2)[C@]2(C)[C@@H]3C(=CC[C@@H]12)[C@@H](OC)O[C@H]3OC | Plasmopara viticola | inhibition at 6.25 ppm | 7 |
| C=C1[C@@H]2[C@@H](O)C=C3[C@@H](OC)O[C@@H](OC)[C@@H]3[C@@]2(C)[C@H](OC(=O)/C=C/c2ccccc2)C[C@@H]1C | Plasmopara viticola | inhibition at 6.25 ppm | 0 |
| C=C1[C@@H](C)C[C@@H](OC)[C@]2(C)[C@@H](C=O)C(C=O)=CC[C@@H]12 | Plasmopara viticola | inhibition at 6.25 ppm | 9 |
| C=C1[C@@H]2[C@@H](O)C=C3[C@@H](OC)O[C@@H](OC)[C@@H]3[C@@]2(C)[C@H](OC(=O)CCc2ccccc2)C[C@@H]1C | Plasmopara viticola | inhibition at 6.25 ppm | 0 |

QUERY: Request the reported inhibition at 6.25 ppm associated with `C=C1[C@@H]2[C@@H](O)C=C(C=O)[C@H](C=O)[C@@]2(C)[C@H](OC(=O)/C=C/c2ccccc2)C[C@@H]1C`
RESULT: 2

QUERY: Continue with `C=C1[C@@H](C)C[C@@H](OC(=O)/C=C/c2ccccc2)[C@@]2(C)[C@H]1CC=C(CO)[C@@H]2CO`
RESULT: 4

QUERY: Here is the next compound: `C=C1[C@@H]2[C@H](O)C=C(C=O)[C@H](C=O)[C@@]2(C)[C@H](OC(=O)/C=C/c2ccccc2)C[C@@H]1C`
RESULT: 0

====

# System: Plasmopara viticola
# protocol-summary: Antifungal activity against Plasmopara viticola assessed as inhibition of grape downy mildew disease on vines cultivar Carignane plants at 25 ppm measured 24 hr post fungal inoculation relative to untreated control
# Assay type: functional
Measured inhibition at 25 ppm of individual entries
Report as a plain number; the unit % is understood.

# annotated cases, reported inhibition at 25 ppm shown
| compound | observed-property | number |
| --- | --- | --- |
| C=C1[C@@H]2[C@@H](O)C=C3[C@@H](OC)O[C@@H](OC)[C@@H]3[C@@]2(C)[C@H](OC(=O)/C=C/c2ccccc2)C[C@@H]1C | inhibition at 25 ppm | 0 |
| C=C1[C@@H](C)C[C@@H](OC)[C@]2(C)[C@@H](C=O)C(C=O)=CC[C@@H]12 | inhibition at 25 ppm | 33 |
| C=C1[C@@H](C)C[C@@H](OC(=O)/C=C/c2ccccc2)[C@]2(C)[C@@H](C=O)C(C=O)=CC[C@@H]12 [Paxidal] | inhibition at 25 ppm | 23 |
| C=C1[C@@H](C)C[C@@H](O)[C@]2(C)[C@@H](C=O)C(C=O)=CC[C@@H]12 | inhibition at 25 ppm | 4 |
| C=C1[C@@H](C)C[C@@H](OC(=O)/C=C/c2ccccc2)[C@@]2(C)[C@H]1CC=C(CO)[C@@H]2CO | inhibition at 25 ppm | 22 |
| C=C1[C@@H](C)C[C@@H](OC(=O)/C=C/c2ccccc2)[C@]2(C)[C@@H]3C(=CC[C@@H]12)[C@@H](OC)O[C@H]3OC | inhibition at 25 ppm | 61 |

QUERY: Item under review: `C=C1[C@@H]2[C@H](O)C=C(C=O)[C@H](C=O)[C@@]2(C)[C@H](OC(=O)/C=C/c2ccccc2)C[C@@H]1C` . Reported inhibition at 25 ppm?
RESULT: 28

QUERY: Same for `C=C1[C@@H]2[C@@H](O)C=C(C=O)[C@H](C=O)[C@@]2(C)[C@H](OC(=O)/C=C/c2ccccc2)C[C@@H]1C`
RESULT: 19

QUERY: One more compound: `C=C1[C@@H]2[C@@H](O)C=C3[C@@H](OC)O[C@@H](OC)[C@@H]3[C@@]2(C)[C@H](OC(=O)CCc2ccccc2)C[C@@H]1C`
RESULT: 0

====

# inhibition at 6.25 ppm per record follows
# Test system: Puccinia graminis f. tritici
# protocol-summary: Antifungal activity against Puccinia graminis f. tritici assessed as inhibition of wheat stem rust disease on wheat cultivar Yuma at 6.25 ppm measured 24 hr post fungal inoculation relative to untreated control
# Assay type: functional
The response must be a number in % with no trailing unit.

| smiles-str | units-text | inhibition at 6.25 ppm |
| --- | --- | --- |
| C=C1[C@@H]2[C@H](O)C=C(C=O)[C@H](C=O)[C@@]2(C)[C@H](OC(=O)/C=C/c2ccccc2)C[C@@H]1C | % | 0 |
| C=C1[C@@H](C)C[C@@H](OC)[C@]2(C)[C@@H](C=O)C(C=O)=CC[C@@H]12 | % | 0 |
| C=C1[C@@H](C)C[C@@H](OC(=O)/C=C/c2ccccc2)[C@@]2(C)[C@H]1CC=C(CO)[C@@H]2CO | % | 0 |
| C=C1[C@@H](C)C[C@@H](O)[C@]2(C)[C@@H](C=O)C(C=O)=CC[C@@H]12 | % | 0 |
| C=C1[C@@H]2[C@@H](O)C=C3[C@@H](OC)O[C@@H](OC)[C@@H]3[C@@]2(C)[C@H](OC(=O)/C=C/c2ccccc2)C[C@@H]1C | % | 0 |
| C=C1[C@@H](C)C[C@@H](OC(=O)/C=C/c2ccccc2)[C@]2(C)[C@@H]3C(=CC[C@@H]12)[C@@H](OC)O[C@H]3OC | % | 4 |
| C=C1[C@@H]2[C@@H](O)C=C3[C@@H](OC)O[C@@H](OC)[C@@H]3[C@@]2(C)[C@H](OC(=O)CCc2ccccc2)C[C@@H]1C | % | 42 |

Kindly review the next molecule as well.
QUERY: Item: `C=C1[C@@H]2[C@@H](O)C=C(C=O)[C@H](C=O)[C@@]2(C)[C@H](OC(=O)/C=C/c2ccccc2)C[C@@H]1C` Test system: Puccinia graminis f. tritici Read-out: inhibition at 6.25 ppm Value: ?
RESULT: 4
